All values here come from the supplement of paper PMC7877785.

experiment: self-splicing fitness, log relative to wild type (ln ratio); higher = more splicing; Tetrahymena group I intron in knt gene, E. coli kanamycin selection, DiMSum; sequences stand for … in CUCUCU…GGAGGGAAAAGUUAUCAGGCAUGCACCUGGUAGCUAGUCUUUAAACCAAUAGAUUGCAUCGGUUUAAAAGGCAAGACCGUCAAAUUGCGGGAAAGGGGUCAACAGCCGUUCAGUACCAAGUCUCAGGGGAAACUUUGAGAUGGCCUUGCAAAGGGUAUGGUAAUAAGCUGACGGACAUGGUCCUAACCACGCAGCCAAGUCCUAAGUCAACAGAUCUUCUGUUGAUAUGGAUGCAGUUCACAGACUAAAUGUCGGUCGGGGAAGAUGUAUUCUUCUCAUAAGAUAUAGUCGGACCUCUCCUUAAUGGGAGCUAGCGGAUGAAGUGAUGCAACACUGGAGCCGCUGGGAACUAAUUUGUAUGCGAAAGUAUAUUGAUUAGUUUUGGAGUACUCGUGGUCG; conditions: 37 °C;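 also: selection with 25 µg/mL kanamycin versus none on LB agar overnight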
Category scheme (self-splicing fitness (ln)): low interval: < -2; middle interval: ≥ -2 and < -0.9; high interval: ≥ -0.9

{"Residue sequence": "UGCUAGCAAUAUUACGGAGU", "Cat": "low interval"}
{"Residue sequence": "ACGCAGCAAUAUUACGAAAU", "Cat": "middle interval"}
{"Residue sequence": "GGGUAGCAAUAUUACGAGUA", "Cat": "high interval"}
{"Residue sequence": "CACCAGCAAUAUUACGUGUG", "Cat": "low interval"}
{"Residue sequence": "CAAGAGCAAUAUUACGUUAC", "Cat": "low interval"}
{"Residue sequence": "GUUCAGCAAUAUUACGGUUC", "Cat": "high interval"}
{"Residue sequence": "CUUGAGCAAUAUUACGGGAG", "Cat": "low interval"}
{"Residue sequence": "CCUAAGCAAUAUUACGUGUC", "Cat": "middle interval"}
{"Residue sequence": "AAGGAGCAAUAUUACGCGAA", "Cat": "middle interval"}
{"Residue sequence": "CUAGAGCAAUAUUACGAGGG", "Cat": "middle interval"}
{"Residue sequence": "UGUCAGCAAUAUUACGCCUA", "Cat": "high interval"}
{"Residue sequence": "UCUCAGCAAUAUUACGAGUA", "Cat": "high interval"}
{"Residue sequence": "ACACAGCAAUAUUACGGGGA", "Cat": "high interval"}
{"Residue sequence": "CAAAAGCAAUAUUACGGCAA", "Cat": "middle interval"}
{"Residue sequence": "AAUCAGCAAUAUUACGAGUC", "Cat": "middle interval"}

###

experiment: self-splicing fitness, log relative to wild type (ln ratio); higher = more splicing; Tetrahymena group I intron in knt gene, E. coli kanamycin selection, DiMSum; sequences stand for … in CUCUCU…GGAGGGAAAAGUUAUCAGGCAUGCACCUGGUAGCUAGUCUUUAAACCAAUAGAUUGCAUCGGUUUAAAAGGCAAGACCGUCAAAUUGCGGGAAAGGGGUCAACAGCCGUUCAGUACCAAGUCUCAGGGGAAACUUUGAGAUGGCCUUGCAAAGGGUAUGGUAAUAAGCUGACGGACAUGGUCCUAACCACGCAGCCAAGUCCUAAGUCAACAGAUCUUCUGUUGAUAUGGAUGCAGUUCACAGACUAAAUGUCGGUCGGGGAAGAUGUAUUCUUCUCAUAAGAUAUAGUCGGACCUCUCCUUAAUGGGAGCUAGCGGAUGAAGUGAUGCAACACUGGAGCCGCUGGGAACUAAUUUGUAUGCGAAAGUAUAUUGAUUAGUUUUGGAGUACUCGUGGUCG; conditions: 30 °C
Some sequences, each annotated with its measured self-splicing fitness (ln).
Observable: self-splicing fitness (ln)

{"Residue sequence": "UUAGAGCAAUAUUACGAAGA", "Observable": "self-splicing fitness (ln)", "Test result": -1.27}
{"Residue sequence": "UGACAGCAAUAUUACGACCC", "Observable": "self-splicing fitness (ln)", "Test result": -1.52}
{"Residue sequence": "CCUUAGCAAUAUUACGGUAA", "Observable": "self-splicing fitness (ln)", "Test result": -2.78}
{"Residue sequence": "UCAUAGCAAUAUUACGAUUC", "Observable": "self-splicing fitness (ln)", "Test result": -2.39}
{"Residue sequence": "CCGCAGCAAUAUUACGAUAA", "Observable": "self-splicing fitness (ln)", "Test result": -2}
{"Residue sequence": "UCCCAGCAAUAUUACGGGGU", "Observable": "self-splicing fitness (ln)", "Test result": -3.87}
{"Residue sequence": "ACAUAGCAAUAUUACGGGGC", "Observable": "self-splicing fitness (ln)", "Test result": -2.87}
{"Residue sequence": "GUCUAGCAAUAUUACGGUCC", "Observable": "self-splicing fitness (ln)", "Test result": -2.44}

###

test: self-splicing fitness, log relative to wild type (ln ratio); higher = more splicing; Tetrahymena group I intron in knt gene, E. coli kanamycin selection, DiMSum; sequences stand for … in CUCUCU…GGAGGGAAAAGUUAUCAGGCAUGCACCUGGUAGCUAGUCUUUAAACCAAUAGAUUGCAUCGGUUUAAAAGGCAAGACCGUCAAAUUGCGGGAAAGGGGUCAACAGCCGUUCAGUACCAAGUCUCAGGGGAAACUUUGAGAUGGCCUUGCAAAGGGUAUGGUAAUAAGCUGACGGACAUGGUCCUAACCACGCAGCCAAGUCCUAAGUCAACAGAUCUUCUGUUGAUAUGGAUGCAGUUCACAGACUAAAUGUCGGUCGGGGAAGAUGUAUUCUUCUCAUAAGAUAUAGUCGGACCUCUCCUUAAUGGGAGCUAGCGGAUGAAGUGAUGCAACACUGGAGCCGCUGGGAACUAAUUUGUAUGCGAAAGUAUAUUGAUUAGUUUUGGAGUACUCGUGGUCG; details: 37 °C
Some sequences, each annotated with its measured self-splicing fitness (ln).
Observable: self-splicing fitness (ln)

{"Residue sequence": "CAGCAGCAAUAUUACGCCGG", "Observable": "self-splicing fitness (ln)", "Test result": -0.31}
{"Residue sequence": "UGACAGCAAUAUUACGGUCG", "Observable": "self-splicing fitness (ln)", "Test result": -1.58}
{"Residue sequence": "CGACAGCAAUAUUACGGAGG", "Observable": "self-splicing fitness (ln)", "Test result": -1.21}
{"Residue sequence": "UAAGAGCAAUAUUACGCAGC", "Observable": "self-splicing fitness (ln)", "Test result": -3.49}
{"Residue sequence": "AAGCAGCAAUAUUACGUAAA", "Observable": "self-splicing fitness (ln)", "Test result": -0.803}
{"Residue sequence": "GUAAAGCAAUAUUACGAGGC", "Observable": "self-splicing fitness (ln)", "Test result": -2.44}
{"Residue sequence": "UUAUAGCAAUAUUACGGUCG", "Observable": "self-splicing fitness (ln)", "Test result": 0.176}
{"Residue sequence": "UGCCAGCAAUAUUACGGGUU", "Observable": "self-splicing fitness (ln)", "Test result": -2.34}
{"Residue sequence": "UGGCAGCAAUAUUACGUCCA", "Observable": "self-splicing fitness (ln)", "Test result": -0.471}
{"Residue sequence": "UCGAAGCAAUAUUACGUAGG", "Observable": "self-splicing fitness (ln)", "Test result": -1.61}
{"Residue sequence": "CUAGAGCAAUAUUACGGCCU", "Observable": "self-splicing fitness (ln)", "Test result": -1.69}
{"Residue sequence": "CCCAAGCAAUAUUACGUACU", "Observable": "self-splicing fitness (ln)", "Test result": -2.46}
{"Residue sequence": "CAAGAGCAAUAUUACGAUGA", "Observable": "self-splicing fitness (ln)", "Test result": -0.971}
{"Residue sequence": "ACGCAGCAAUAUUACGAUCG", "Observable": "self-splicing fitness (ln)", "Test result": 0.252}
{"Residue sequence": "UAUCAGCAAUAUUACGUCGU", "Observable": "self-splicing fitness (ln)", "Test result": -1.6}
{"Residue sequence": "AGCAAGCAAUAUUACGACAC", "Observable": "self-splicing fitness (ln)", "Test result": -0.583}
{"Residue sequence": "UGGCAGCAAUAUUACGACUU", "Observable": "self-splicing fitness (ln)", "Test result": 0.468}
{"Residue sequence": "CGCCAGCAAUAUUACGUUGG", "Observable": "self-splicing fitness (ln)", "Test result": -2.68}
{"Residue sequence": "CACUAGCAAUAUUACGGUCU", "Observable": "self-splicing fitness (ln)", "Test result": -0.782}
{"Residue sequence": "AUUGAGCAAUAUUACGGUUC", "Observable": "self-splicing fitness (ln)", "Test result": -2.16}
{"Residue sequence": "GUUGAGCAAUAUUACGUGUG", "Observable": "self-splicing fitness (ln)", "Test result": -3.15}
{"Residue sequence": "CCAGAGCAAUAUUACGUGGG", "Observable": "self-splicing fitness (ln)", "Test result": -2.29}
{"Residue sequence": "GCGUAGCAAUAUUACGUCGC", "Observable": "self-splicing fitness (ln)", "Test result": -1.84}
{"Residue sequence": "UAUAAGCAAUAUUACGCGCU", "Observable": "self-splicing fitness (ln)", "Test result": 0.225}
{"Residue sequence": "ACACAGCAAUAUUACGACCA", "Observable": "self-splicing fitness (ln)", "Test result": 0.147}
{"Residue sequence": "GAUAAGCAAUAUUACGAGAA", "Observable": "self-splicing fitness (ln)", "Test result": -1.38}
{"Residue sequence": "UGCGAGCAAUAUUACGAGUC", "Observable": "self-splicing fitness (ln)", "Test result": -2.27}
{"Residue sequence": "AGCUAGCAAUAUUACGUCAC", "Observable": "self-splicing fitness (ln)", "Test result": -2.69}
{"Residue sequence": "AGACAGCAAUAUUACGUGAC", "Observable": "self-splicing fitness (ln)", "Test result": -1.42}
{"Residue sequence": "UACAAGCAAUAUUACGCGCC", "Observable": "self-splicing fitness (ln)", "Test result": -0.798}
{"Residue sequence": "GUUCAGCAAUAUUACGCGCG", "Observable": "self-splicing fitness (ln)", "Test result": -0.279}
{"Residue sequence": "UAUUAGCAAUAUUACGUGUA", "Observable": "self-splicing fitness (ln)", "Test result": -0.828}
{"Residue sequence": "GUACAGCAAUAUUACGUUUA", "Observable": "self-splicing fitness (ln)", "Test result": -1.89}
{"Residue sequence": "GGGGAGCAAUAUUACGGGGU", "Observable": "self-splicing fitness (ln)", "Test result": -2.13}
